# Read-out: Urokinase-type plasminogen activator receptor (uPAR), PLAUR (gene 5329)
# assay_name: BSK_CASM3C_uPAR: BioMAP Diversity Plus: CASM3C Assay for Urokinase-type plasminogen activator receptor (uPAR) Biomarker Activity (AID 2283054);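 further: cell-surface uPAR protein level quantified by ELISA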
# measurement_parameters: primary human coronary artery smooth muscle cells; actives raise or lower the signal
Active and inactive are the calls of the source. How the source made its calls: active means hit-call score of the fitted dose curve at least 0.9, where 1 is the maximum; inactive means score below 0.9.
API: response.call in class 1 = active, class 0 = inactive

The examples below pair each entry with its known result.
{"compound": "CCOC(=O)CCCCCCCCC(=O)OCC", "assigned_class": "class 0"}
{"compound": "O=C(O)C(F)(F)OC(F)(F)C(F)(F)OC(F)(F)C(F)(F)C(F)(F)C(F)(F)F", "assigned_class": "class 0"}
{"compound": "c1ccc(Sc2ccccc2)cc1", "assigned_class": "class 0"}
{"compound": "CCCO[Si](OCCC)(OCCC)OCCC", "assigned_class": "class 0"}
{"compound": "C#C[C@]1(O)CC[C@H]2[C@@H]3CCc4cc(O)ccc4[C@H]3CC[C@@]21C", "assigned_class": "class 0"}
{"compound": "COc1ccccc1NC(=O)CC(C)=O", "assigned_class": "class 0"}
{"compound": "CC1(C)[C@H](C=C(Cl)Cl)[C@H]1C(=O)OCc1cccc(Oc2ccccc2)c1", "assigned_class": "class 0"}
{"compound": "CCOC(=O)C=Cc1ccccc1", "assigned_class": "class 0"}

Q: Hi, sorry to bother you, what did the test record for CC(C)(CO)CO ?
Result: class 0

Q: Hi, sorry to bother you, what did the test record for CC(C)(C)c1cccc(O)c1 ?
Result: class 0

Q: Hi, sorry to bother you, what did the test record for CCCCCCCCCCCCS ?
Result: class 1

Q: Hi, sorry to bother you, what did the test record for O=C(O)C(F)(F)C(F)(F)C(F)(F)C(F)(F)C(F)(F)C(F)(F)C(F)(F)C(F)F ?
Result: class 0

Q: Hi, sorry to bother you, what did the test record for c1ccc2c(c1)-c1ccc3ccc4cccc5cc-2c1c3c45 ?
Result: class 0

Q: Hi, sorry to bother you, what did the test record for CCn1cc(C(=O)O)c(=O)c2ccc(C)nc21 ?
Result: class 0

Q: Hi, sorry to bother you, what did the test record for CCC(=O)OCC=Cc1ccccc1 ?
Result: class 0

Q: Hi, sorry to bother you, what did the test record for CC(=O)c1ccc(C)cc1 ?
Result: class 0

Q: Hi, sorry to bother you, what did the test record for C=CC(=O)OCC(CO)(COC(=O)C=C)COC(=O)C=C ?
Result: class 1

Q: Hi, sorry to bother you, what did the test record for c1ccc(OCCOc2ccccc2)cc1 ?
Result: class 0

Q: Hi, sorry to bother you, what did the test record for C=C(C)C(N)=O ?
Result: class 0

Q: Hi, sorry to bother you, what did the test record for C=C(C)C(=O)OCCC(F)(F)C(F)(F)C(F)(F)C(F)(F)C(F)(F)C(F)(F)C(F)(F)C(F)(F)F ?
Result: class 0

Q: Hi, sorry to bother you, what did the test record for CC(=O)CCC=C(C)CCC=C(C)C ?
Result: class 0

Q: Hi, sorry to bother you, what did the test record for CCCCCCCCCC(=O)OCC ?
Result: class 1

Q: Hi, sorry to bother you, what did the test record for CCCCN(CCO)CCO ?
Result: class 0

Q: Hi, sorry to bother you, what did the test record for CC(=O)OC(C)(C)C1CC=C(C)CC1 (stereo not given) ?
Result: class 1

Q: Hi, sorry to bother you, what did the test record for O=C(c1ccc(OCCN2CCCCC2)cc1)c1c(-c2ccc(O)cc2)sc2cc(O)ccc12 ?
Result: class 1
